System: Rattus norvegicus
procedure_details: Percent protection against thioacetamide-induced toxicity in rats using glutamate oxaloacetate transaminase (GOT) when peroral administration of compound 6 mg/kg for 7 days
Assay type: functional
condition_info: route oral
readout_name: Protection (%)
Enter your answer as a number in %; do not include the unit.

As a guide, the following entries are already answered.
{"smiles_str": "CSc1cc(-c2ccc(Br)cc2)oc(=O)c1Cl", "readout_name": "Protection", "assay_result": 30}
{"smiles_str": "CSc1cc(-c2ccc(Br)cc2)oc(=O)c1C#N", "readout_name": "Protection", "assay_result": 20}
{"smiles_str": "CSc1cc(-c2ccc(Cl)cc2Cl)oc(=O)c1C#N", "readout_name": "Protection", "assay_result": 37}
{"smiles_str": "CSc1cc(-c2cccnc2)oc(=O)c1C#N", "readout_name": "Protection", "assay_result": 12}
{"smiles_str": "CCOC(=O)c1c(SC)cc(-c2ccc(Cl)cc2)oc1=O", "readout_name": "Protection", "assay_result": 23}

Entry CSc1cc(-c2ccc(Cl)cc2)oc(=O)c1Cl has what Protection?
36
